# Test system: 143B cells
# experiment: CCK-8 anti-proliferative assay, 143B
# Type: cell-based, human
# condition.label: Homo sapiens, 143B; Table 11; co-incubated 48 h; read-out: Anti-proliferative activity (IC50 ± standard deviation) 143B
Recorded pIC50 by entry
In plain terms, pIC50 is the concentration in mol/L turned into minus its base-10 logarithm.

mol.smiles | study.system | pIC50
COc1cc2ncnc(NCc3cccc(NC(=O)Nc4ccc(Cl)cc4)c3)c2cc1OCCCCCCN1CCC(CN2CCN(c3ccccn3)CC2)CC1 | 143B cells | 5.15
COc1cc2ncnc(NCc3cccc(NC(=O)Nc4ccc(F)c(C(F)(F)F)c4)c3)c2cc1OCCCCCCN1CCC(CN2CCN(c3ccccn3)CC2)CC1 | 143B cells | 4.87
COc1cc2ncnc(NCc3cccc(NC(=O)Nc4ccc(F)cc4)c3)c2cc1OCCCCCCN1CCC(CN2CCN(c3ccccn3)CC2)CC1 | 143B cells | 5.17
COc1cc2ncnc(NCc3cccc(NC(=O)Nc4cccc(C)c4)c3)c2cc1OCCCCCCN1CCC(CN2CCN(c3ccccn3)CC2)CC1 | 143B cells | 5.22
COc1cc2ncnc(NCc3cccc(NC(=O)Nc4ccccc4C)c3)c2cc1OCCCCCCN1CCC(CN2CCN(c3ccccn3)CC2)CC1 | 143B cells | 5.19

Exercise: // pIC50 lookup, key: COc1ccc(NC(=O)Nc2cccc(CNc3ncnc4cc(OC)c(OCCCCCCN5CCC(CN6CCN(c7ccccn7)CC6)CC5)cc34)c2)cc1
Solution: 5.17

Exercise: Need pIC50, item COc1cc2ncnc(NCc3cccc(NC(=O)Nc4c(Cl)cc(Cl)cc4Cl)c3)c2cc1OCCCCCCN1CCC(CN2CCN(c3ccccn3)CC2)CC1
Solution: 5.23

Exercise: Please report the recorded pIC50 for COc1cc2ncnc(NCc3cccc(NC(=O)Nc4ccc(Cl)c(C(F)(F)F)c4)c3)c2cc1OCCCCCCN1CCC(CN2CCN(c3ccccn3)CC2)CC1 .
Solution: 5.16

Exercise: Would you mind telling me what pIC50 value was observed for CCc1cccc(CC)c1NC(=O)Nc1cccc(CNc2ncnc3cc(OC)c(OCCCCCCN4CCC(CN5CCN(c6ccccn6)CC5)CC4)cc23)c1 ?
Solution: 5.31

Exercise: Reported pIC50 for COc1cc2ncnc(NCc3cccc(NC(=O)Nc4ccc(C)cc4C)c3)c2cc1OCCCCCCN1CCC(CN2CCN(c3ccccn3)CC2)CC1 : what is it?
Solution: 5.28

Exercise: Give the measured pIC50 of COc1cc2ncnc(NCc3cccc(NC(=O)Nc4ccc(C(C)(C)C)cc4)c3)c2cc1OCCCCCCN1CCC(CN2CCN(c3ccccn3)CC2)CC1 .
Solution: 5.25
